biological target: Dimer of Gag-Pol polyprotein [489-587] (Human immunodeficiency virus 1); construct: 489-587; test: Enzyme Inhibition Assay; conditions: pH 5; 30 °C
# pKi annotations
Formally, pKi is defined as -log10 of the concentration c, with c in mol/L.

Example compounds with recorded pKi:
Smiles Entry	Measured Target	pKi
COc1ccc(-c2ccccc2CN2C[C@H](O)[C@@H](O)CN(Cc3ccccc3-c3ccc(OC)c(OC)c3)S2(=O)=O)cc1OC	Dimer of Gag-Pol polyprotein [489-587] (Human immunodeficiency virus 1)	5.03
O=S1(=O)N(Cc2ccccc2-c2cccc(C(F)(F)F)c2)C[C@H](O)[C@@H](O)CN1Cc1ccccc1-c1cccc(C(F)(F)F)c1	Dimer of Gag-Pol polyprotein [489-587] (Human immunodeficiency virus 1)	5.62
CCS(=O)(=O)c1ccc(-c2ccccc2CN2C[C@H](O)[C@@H](O)CN(Cc3ccccc3-c3ccc(S(=O)(=O)CC)cc3)S2(=O)=O)cc1	Dimer of Gag-Pol polyprotein [489-587] (Human immunodeficiency virus 1)	5.28

Now look at this one.
Provide the documented pKi with Dimer of Gag-Pol polyprotein [489-587] (Human immunodeficiency virus 1) as the system for O=S1(=O)N(Cc2ccccc2/C=C/c2ccccc2)C[C@H](O)[C@@H](O)CN1Cc1ccccc1/C=C/c1ccccc1 5.70

====

# Ki annotations
biological target: Dimer of Gag-Pol polyprotein [489-587] (Human immunodeficiency virus 1, UniProt P12497); construct: 489-587; test: Enzyme Inhibition Assay; settings: pH 5; 30 °C
Supply the numeric figure in µM, leaving out any unit text.

Example compounds with recorded Ki:
Smiles Entry	Number
O=S1(=O)N(Cc2ccccc2-c2ccc(F)cc2)C[C@H](O)[C@@H](O)CN1Cc1ccccc1-c1ccc(F)cc1	5.3
COc1ccc(-c2ccccc2CN2C[C@H](O)[C@@H](O)CN(Cc3ccccc3-c3ccc(OC)cc3)S2(=O)=O)cc1	9.7

Now look at this one.
Provide the documented Ki with Dimer of Gag-Pol polyprotein [489-587] (Human immunodeficiency virus 1, UniProt P12497) as the system for COc1ccccc1-c1ccccc1CN1C[C@H](O)[C@@H](O)CN(Cc2ccccc2-c2ccccc2OC)S1(=O)=O 5.1
